Tested on: Mealy Bug
Conditions: mealy bug on cotton plants, green house; dose 1 ml/gm/lit. spray; 48 hrs; corrected for water control
measurement_type: % Corrected Mortality at 48 Hrs.
State the value with its unit after it.

Problem: GET /values?readout=% Corrected Mortality at 48 Hrs.&item= "CCCCC[C@H](O)CC(=O)CCc1ccc(O)c(OC)c1"
Result: 30.56%

Problem: GET /values?readout=% Corrected Mortality at 48 Hrs.&item= "C/C=C\c1cc(OC)c(OC)cc1OC"
Result: 27.78%

Problem: GET /values?readout=% Corrected Mortality at 48 Hrs.&item= CC1CCC(C(C)C)C(O)C1 (stereo not shown)
Result: 63.89%

Problem: GET /values?readout=% Corrected Mortality at 48 Hrs.&item= CC1=CCC2CC1C2(C)C (stereo not shown)
Result: 55.56%
